ASSAY SYSTEM: Protease (Human immunodeficiency virus 1, UniProt Q9YQ12)
Sequence (Q9YQ12 whole entry): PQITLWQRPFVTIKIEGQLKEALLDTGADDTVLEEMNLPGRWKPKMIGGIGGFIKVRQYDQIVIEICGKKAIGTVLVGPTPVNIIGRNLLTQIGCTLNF
PROTOCOL SUMMARY: Inhibition of recombinant HIV1 protease expressed in Escherichia coli by fluorescence technique
Parameter: Ki. Scope: all listed entries.
Write the answer as a number in µM, unit excluded.

CC(C)CN(CCNCCN(CC(C)C)S(=O)(=O)c1ccccc1)S(=O)(=O)c1ccccc1 = 10
O=S(=O)(c1ccccc1)N(CCNCCN(Cc1ccccc1)S(=O)(=O)c1ccccc1)Cc1ccccc1 = 3.8
CC(C)CN(C[C@@H](O)[C@H](Cc1ccccc1)NC(=O)O[C@H]1CCOC1)S(=O)(=O)c1ccc(N)cc1 = 0.9

Consider the record given below.
Name the reported Ki value associated with the molecule `O=S(=O)(c1ccccc1)N(CCCNCCN(Cc1ccccc1)S(=O)(=O)c1ccccc1)Cc1ccccc1`
14

====

Parameter: Ki. Scope: all listed entries.
PROTOCOL SUMMARY: Inhibition of pig pepsin by fluorescence technique
Parameters: species or system Sus scrofa
Write the answer as a number in µM, unit excluded.

Known results for compounds:
CC(C)CN(CCNCCN(CC(C)C)S(=O)(=O)c1ccc(N)cc1)S(=O)(=O)c1ccc(N)cc1 = 4.8
O=S(=O)(c1ccccc1)N(CCCNCCN(Cc1ccccc1)S(=O)(=O)c1ccccc1)Cc1ccccc1 = 15
Nc1ccc(S(=O)(=O)N(CCNCCN(Cc2ccccc2)S(=O)(=O)c2ccc(N)cc2)Cc2ccccc2)cc1 = 3.9
CC(C)CN(CCNCCN(CC(C)C)S(=O)(=O)c1ccccc1)S(=O)(=O)c1ccccc1 = 4.5
Nc1ccc(S(=O)(=O)N(CCCNCCCN(Cc2ccccc2)S(=O)(=O)c2ccc(N)cc2)Cc2ccccc2)cc1 = 4

Consider the record given below.
Name the reported Ki value associated with the compound `O=S(=O)(c1ccccc1)N(CCNCCN(Cc1ccccc1)S(=O)(=O)c1ccccc1)Cc1ccccc1`
5.7

====

ASSAY SYSTEM: Beta-secretase 1 (Homo sapiens)
Sequence (P56817 whole entry): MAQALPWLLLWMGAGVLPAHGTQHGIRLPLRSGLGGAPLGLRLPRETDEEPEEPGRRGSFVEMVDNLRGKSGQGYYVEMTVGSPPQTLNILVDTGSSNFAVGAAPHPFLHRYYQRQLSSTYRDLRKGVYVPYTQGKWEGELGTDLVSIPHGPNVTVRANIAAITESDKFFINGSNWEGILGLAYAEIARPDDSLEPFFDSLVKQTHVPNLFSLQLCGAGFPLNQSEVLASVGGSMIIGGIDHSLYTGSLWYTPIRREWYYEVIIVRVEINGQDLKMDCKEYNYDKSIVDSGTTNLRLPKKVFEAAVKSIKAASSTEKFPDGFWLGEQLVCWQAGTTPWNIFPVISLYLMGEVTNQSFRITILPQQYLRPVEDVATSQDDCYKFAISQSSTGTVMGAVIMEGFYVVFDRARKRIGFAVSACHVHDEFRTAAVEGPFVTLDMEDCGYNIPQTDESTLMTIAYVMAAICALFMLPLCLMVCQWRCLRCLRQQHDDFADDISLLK
PROTOCOL SUMMARY: Inhibition of recombinant beta secretase 1 by fluorescence technique
Parameter: pKi. Scope: all listed entries.
Kindly note that pKi refers to -log10 of the concentration in mol/L and answer with the value alone.

O=S(=O)(c1ccccc1)N(CCCNCCCN(Cc1ccccc1)S(=O)(=O)c1ccccc1)Cc1ccccc1 = 3.82

Name the reported pKi value associated with the compound `Nc1ccc(S(=O)(=O)N(CCCNCCCN(Cc2ccccc2)S(=O)(=O)c2ccc(N)cc2)Cc2ccccc2)cc1`
4.19

====

Parameter: log10 of Ki. Scope: all listed entries.
PROTOCOL SUMMARY: Inhibition of Plasmodium recombinant plasmepsin-4 expressed in Escherichia coli by fluorescence technique
In plain terms, each number is the log10 of measured Ki in µM.

Known results for molecules:
O=C(Cc1ccccc1)N(CCCNCCN(Cc1ccccc1)C(=O)Cc1ccccc1)Cc1ccccc1 = 1.75
O=C(Cc1ccccc1)N(CCCNCCCN(Cc1ccccc1)C(=O)Cc1ccccc1)Cc1ccccc1 = 2.23
Nc1ccc(S(=O)(=O)N(CCNCCN(Cc2ccccc2)S(=O)(=O)c2ccc(N)cc2)Cc2ccccc2)cc1 = 0.88
O=C(Cc1ccccc1)N(CCNCCN(Cc1ccccc1)C(=O)Cc1ccccc1)Cc1ccccc1 = 1.99

Name the reported log10 of Ki value associated with the molecule `O=S(=O)(c1ccccc1)N(CCNCCN(Cc1ccccc1)S(=O)(=O)c1ccccc1)Cc1ccccc1`
1.56

Name the reported log10 of Ki value associated with the molecule `O=S(=O)(c1ccccc1)N(CCCNCCN(Cc1ccccc1)S(=O)(=O)c1ccccc1)Cc1ccccc1`
1.23

Name the reported log10 of Ki value associated with the molecule `O=S(=O)(c1ccccc1)N(CCCNCCCN(Cc1ccccc1)S(=O)(=O)c1ccccc1)Cc1ccccc1`
1.62

Name the reported log10 of Ki value associated with the molecule `CC(C)CN(CCNCCN(CC(C)C)S(=O)(=O)c1ccccc1)S(=O)(=O)c1ccccc1`
1.94

Name the reported log10 of Ki value associated with the molecule `Nc1ccc(S(=O)(=O)N(CCCNCCN(Cc2ccccc2)S(=O)(=O)c2ccc(N)cc2)Cc2ccccc2)cc1`
0.88

Name the reported log10 of Ki value associated with the molecule `Nc1ccc(S(=O)(=O)N(CCCNCCCN(Cc2ccccc2)S(=O)(=O)c2ccc(N)cc2)Cc2ccccc2)cc1`
1.30

Name the reported log10 of Ki value associated with the molecule `CC(C)CN(CCNCCN(CC(C)C)S(=O)(=O)c1ccc(N)cc1)S(=O)(=O)c1ccc(N)cc1`
1.75

====

ASSAY SYSTEM: Renin (Homo sapiens)
Sequence (P00797 whole entry): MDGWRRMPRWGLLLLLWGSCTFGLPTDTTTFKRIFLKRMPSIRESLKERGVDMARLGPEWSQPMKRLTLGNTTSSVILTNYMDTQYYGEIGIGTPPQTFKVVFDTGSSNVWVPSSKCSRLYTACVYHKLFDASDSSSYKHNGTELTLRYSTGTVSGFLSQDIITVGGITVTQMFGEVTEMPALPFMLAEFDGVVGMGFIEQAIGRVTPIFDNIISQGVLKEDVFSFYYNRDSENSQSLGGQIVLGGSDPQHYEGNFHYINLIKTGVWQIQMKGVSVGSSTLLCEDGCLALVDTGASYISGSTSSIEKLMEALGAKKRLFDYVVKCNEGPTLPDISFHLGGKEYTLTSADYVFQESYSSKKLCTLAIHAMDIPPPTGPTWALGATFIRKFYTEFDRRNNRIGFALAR
PROTOCOL SUMMARY: Inhibition of recombinant renin by fluorescence technique
RECORDED ENDPOINT: Ki

O=C(Cc1ccccc1)N(CCNCCN(Cc1ccccc1)C(=O)Cc1ccccc1)Cc1ccccc1 = 5.7 µM

Item `O=C(Cc1ccccc1)N(CCCNCCCN(Cc1ccccc1)C(=O)Cc1ccccc1)Cc1ccccc1` with Renin (Homo sapiens) - Ki?
16 µM
